Assign cell viability to each entry below.
test system: SEM cells; experiment: cell viability relative to DMSO control; higher = less cytotoxic; details: RPMI 5 mM glucose + 10% dialyzed FBS; 48 h; 0.0211 µM
Numeric answer only, unit % assumed.

Request: Look at this molecule and give its reported cell viability. "CC1=C(/C=C/C(C)=C/C=C/C(C)=C/C=C/C=C(C)/C=C/C=C(C)/C=C/C2=C(C)CCCC2(C)C)C(C)(C)CCC1"
Result: 106

Request: For the molecule shown here, "CC(C)(C)c1cc(NC(=O)Nc2ccc(-c3cn4c(n3)sc3cc(OCCN5CCOCC5)ccc34)cc2)no1" , give the reported cell viability.
Result: 36.6

Request: I am curious: what cell viability value has been reported for "COc1cnc(N[S+](=O)([O-])c2ccc(N)cc2)nc1" ?
Result: 104

Request: // query cell viability value for entry "OC[C@H]1O[C@@H](O[C@@H]2[C@@H](CO)O[C@](O)(CO)[C@H]2O)[C@H](O)[C@@H](O)[C@H]1O"
Result: 116

Request: Endpoint output: cell viability of "C/C=C(/C)C(=O)O[C@H]1C(C)=C2[C@H]([C@@H]1OC(=O)CCCCCCC)[C@@](C)(OC(C)=O)C[C@H](OC(=O)CCC)[C@@]1(O)[C@H]2OC(=O)[C@@]1(C)O" . Value?
Result: 82.7

Request: Item "Cc1ccc(NC(=O)c2ccc(CN3CCN(C)CC3)cc2)cc1Nc1nc(-c2cccnc2)cs1" has what recorded cell viability?
Result: 65.1

Request: I would be grateful if you could share the reported cell viability for "CCCCn1c(=O)n(Cc2ccccc2F)c(=O)c2nc(Cc3ccc(NC(C)=O)cc3)[nH]c21" .
Result: 81.5

Request: # cell viability lookup, item CCN(CC)CC#CCOC(=O)C(O)(c1ccccc1)C1CCCCC1 (centres undefined)
Result: 83.3

Request: What cell viability value was documented for this molecule, "NC[C@H]1CC[C@H](C(=O)O)CC1" ?
Result: 126
